Molecular target: T1, SARS-CoV-2 Spike RBD A352S (SARS-CoV-2, UniProt P0DTC2 319-541)
T1 construct: domain: RBD
Assay: HTRF, soluble RBD construct
Rule: fold over background under 5 fold over background gives no (0), otherwise yes (1).

Some entries whose results are on file:
>>> group_label("PR201_00151 (antibody, V domains shown) VH: RVTLRESGPALVKPTQTLTLTCTFSGFSLNTSGMCVSWIRQPPGKALEWLARIDWDDDKYYSTSLETRLTISKDTSKNQVVLTMTNLDPVDTGTYYCARISIQSRGGGADYWGQGTLVTVSS VL: DIQMTQSPSSLSASVGDRVTITCRASQSISSYLHWYQQKSGKAPKLLIFVASTLQSGVPSRFSGSGSGTDFTLTISSLQPEDSAAYYCQQSYSPPWTFGQGTKVEIK")
"yes (1)"
>>> group_label("PR197_00647 (antibody, V domains shown) VH: QVQLVESGGGVVQPGRSLRLSCAASGFTFSSYAMHWVRQAPGKGLQWVTLISYDGGDKYYADSVRGRFTISRDNSKNTLYLQMNSLRTEDTAVYYCARDRPQTGDWFPPIPTGVLDVWGQGTTVTVSS VL: DIQMTQSPSSLSASVGDRVTITCRASQGISNYLAWFQQKPGKAPKSLIYAASSLQSGVPSRFSGSESGTDFTLTISSLQPEDFATYYCQQYHSYPITFGQGTRLEIK")
"no (0)"
>>> group_label("PR193_00018 (antibody, V domains shown, also called IMM20184; IMM200184) VH: EVQLVESGGGLVQPGGSLRLSCSASGFTFSSFWMSWVRQAPGKGLEWVATIREDGSEKYYVDSVKGRFSISRDNAKNSLYLQMNSLRAEDTAVYYCARSKWLRGSFDYWGQGTLVTVSS VL: NFMLTQPHSVSESPGKTVTISCTRRSGSIASNYVQWYQQRPGSAPTTVIYEDNQRPSGVPDRFSGSIDSSSNSASLTISGLQTEDEADYYCQSYDSSNPPGASWVFGGGTKLTVL")
"no (0)"

Form field: fold over background at least 5 fold over background? Entry: PR194_00292 (antibody, V domains shown) VH: QVQLQQWGAGLLKPSETLSLTCAVYGGSLSGYYWSWIRQPPGKGLEWIGEINHSGSTNHNPSLKSRVSISVDTSKNQFSLKLSSVTAADTAVYYCARAWKYSSSWYSGGIYYGMDVWGQGTTVTVSS VL: QSALTQPASVSGSPGQSITISCSGTSSDVGSYNLVSWYQQHPGKAPKLMIYEGTKRPSGVSNRFSSSKSGNTASLTISGLQAEDEADYYCCSYAGFSTWVFGGGTKLTVL
no (0)

Form field: fold over background at least 5 fold over background? Entry: PR199_00255 (antibody, V domains shown, also called IMM20279; PR190_00255) VH: QVQLVESGGGVVQPGRSLRLSCAASGFTFSTYGMHWVRQAPGKGLEWVAVIWYNGINKHYADSVKGRFTISRDNSKNTLYLQMSSLRVEDTAVYYCARDWGTLTTLFDFWGQGTLVTVSS VL: DIQMTQSPSSLSASVGERATITCRASQSISSHLNWYQQKPGKAPKFLIYGASSLQSGVPSRFSGSGSGTDFTLTISSLQPEDFATYYCQQSYSTPPWTFGQGTKVEIK
yes (1)

Form field: fold over background at least 5 fold over background? Entry: PR194_00364_b (antibody, V domains shown) VH: EVQLVESGGGLVKPGGSLRLSCSASGFTFTTYTMNWVRQAPGKGLEWVSSISSTGLSIYYADSVKGRFTISRDNAKNSLYLQMNSLRAEDTAVYYCARDPSPTTIYYYYYMDVWGKGTTVTVSS VL: QSALTQPASVSGSPGQSITISCTGTSSDVGTYNLVSWYQHYPGKAPKLIIYEVSKRPSGVSDRFSGSKSGNTASLTISGLQAEDEADYYCCSYAGSTTGYVVFGGGTKLTVL
no (0)

Form field: fold over background at least 5 fold over background? Entry: PR194_00232 (antibody, V domains shown, also called IMM20190; PR194_00190) VH: EVQLVESGGGLVQPGGSLRLSCSASGFTVSSNYMSWVRQAPRKGLEWVSVIYAGGSTFYADSVKGRFTISRDNSKNTLLLQMNSLRAEDTAVYYCARDRGGYLDYWGQGTLVTVSS VL: DIQMTQSPSSLSASVGDRVTITCRASQGISNYLAWYQQKPGKVPKLLIYAASTLQSGVPSRFSGSGSGTDFTLTISSLQPEDVATYYCQKYNSAPGLTFGGGTKVEIK
yes (1)
